Consider the following molecules; for each one, report its inhibition.
target: Gag-Pol polyprotein (Human immunodeficiency virus type 1 group M subtype B (isolate HXB2)) (UniProt P04585); assay: HIV-1 RT RNase H inhibitors, primary screen, biochemical, fluorescence (AID 565); conditions: RT-RNase H RNA/DNA duplex cleavage, at 10 µM, hits give high values
The campaign covered roughly 65,000 compounds. About 1,200 (1.8%) were called active. The full list was thinned out, with actives kept by preference.
Numbers only, in %.

{"columns": ["structure.as.smiles", "property.name", "unit.descriptor", "value"],
 "data": [
  ["CCCCn1c(SCc2ncc(-c3ccccc3)o2)nc2cc(S(N)(=O)=O)ccc21", "inhibition", "%", -15.2],
  ["CS(=O)(=O)N(CC(=O)N1CCN(c2cccc(Cl)c2)CC1)c1ccccc1", "inhibition", "%", -9.31]
]}

Switching to the query record.
Specify reported inhibition for the molecule shown: Cc1cc(Nc2ccccc2)n(CCC#N)n1
-2.42
